Values from patent US20060257938A1

For each record, write down the corresponding DR/DR LNA.
assay: Probe fluorescence ratio response to linolenic acid relative to ADIFAB2; format: binding; conditions: response relative to ADIFAB2
Give bare numbers.

For each listed entry, give its DR/DR LNA.
1. 68V, 72A (protein, listed as Rattus norvegicus, PEPTIDE (1)...(131) wild-type rat intestinal fatty acid binding protein) AFDGTWKVDRNENYEKFMEKMGINVVKRKLGAHDNLKLTITQEGNKFTVKESSNFRNIDVVFELGVDVAYSAADGTELTGTWTMEGNKLVGKFKRVDNGKELIAVREISGNELIQTYTYEGVEAKRIFKKE
2. 60C, 72A (protein, listed as Rattus norvegicus, PEPTIDE (1)...(131) wild-type rat intestinal fatty acid binding protein) AFDGTWKVDRNENYEKFMEKMGINVVKRKLGAHDNLKLTITQEGNKFTVKESSNFRNIDCVFELGVDFAYSAADGTELTGTWTMEGNKLVGKFKRVDNGKELIAVREISGNELIQTYTYEGVEAKRIFKKE
3. 74Q 72A 73F (protein, listed as Rattus norvegicus, PEPTIDE (1)...(131) wild-type rat intestinal fatty acid binding protein) AFDGTWKVDRNENYEKFMEKMGINVVKRKLGAHDNLKLTITQEGNKFTVKESSNFRNIDVVFELGVDFAYSAFQGTELTGTWTMEGNKLVGKFKRVDNGKELIAVREISGNELIQTYTYEGVEAKRIFKKE

Output:
1. 0.22
2. 1.36
3. 1.025
